Data provenance: PubChem BioAssay

# Assay info: basal RPMI8226 viability, no added stimulus, profiling panel, cell-based, calcein-AM fluorescence, 48 h, PK04 Diversity Set (AID 1166);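 note: cells grown under basal conditions without added stimulus; test concentration not given here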
# Condition details: RPMI8226 myeloma viability, higher = more signal
Parameter measured: z-score

// below: answered compounds
INSERT INTO results (compound, value_measured) VALUES
  ('COCC(=C=CC[C@@H](O)c1cccc(OCCO)c1)C[C@@H](O)COCc1ccccc1', 0.34),
  ('CCCCC(=C=CC[C@@H](O)c1ccc(OCCO)cc1)C[C@@H](O)c1ccccn1', -0.616),
  ('CC(C)C(=C=CC[C@@H](O)c1cccc(OCCO)c1)CCO', -0.25),
  ('COCCOC(=O)N1C(=O)[C@@]2(c3cc(C#CC4=CCCCC4)ccc31)[C@H](C(=O)N1CCN(c3ncccn3)CC1)[C@H]1C(=O)O[C@H](c3ccccc3)[C@H](c3ccccc3)N1[C@@H]2c1ccccc1OCCO', -1.88),
  ('COc1ccc(C#Cc2ccc3c(c2)[C@]2(C(=O)N3)[C@H](C(=O)Nc3nc4ccccc4s3)[C@H]3C(=O)O[C@H](c4ccccc4)[C@H](c4ccccc4)N3[C@@H]2c2ccc(OCCO)cc2)cc1', -0.988),
  ('COc1cc2c(cc1O)C(c1ccc(CN3CCCC3)cc1)N(Cc1ccc([N+](=O)[O-])o1)CC2 (stereo not drawn)', -0.0679);

z-score lookup needed for "C=CCOC(=O)[C@H]1[C@@H]2C(=O)O[C@@H](c3ccccc3)[C@@H](c3ccccc3)N2[C@@H](c2ccc(OCCOC(=O)[C@@H]3C[C@@H]4C(=O)N[C@@H](CC(C)C)C(=O)N4[C@@H]3c3ccc(O)cc3)cc2)[C@]12C(=O)Nc1ccc(I)cc12" , thanks. -0.207

# lookup: z-score of "CN(C)CCCC[C@@H]1NC(=O)[C@@H]2C[C@H](C(=O)NCc3ccc(F)cc3)[C@H](c3ccc(O)cc3)N2C1=O" -0.0865

* * *

Quick list: composite z-score per entry.
# Assay info: small-molecule microarray binders of probe aWnt5a, primary screen, biochemical, biotinylated probe, 635/667 nm fluorescence (AID 1113);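 note: score merges 667 nm fluorescence intensity with signal-to-noise per printed feature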
# Condition details: higher = more signal
API note: the answer field is a bare number with no unit suffix.

Study these solved cases before continuing.
INSERT INTO results (molecule, parameter_measured, value_measured) VALUES
  ('CN(C)CCCNC(=O)[C@@]1(Cc2ccccc2I)c2ccccc2C(=O)N(Cc2ccccc2)[C@H]1c1ccc(CO)cc1', 'composite z-score', 0.22),
  ('COCCOC(=O)N1C(=O)[C@@]2(c3cc(C#CCC(C(=O)OC)C(=O)OC)ccc31)[C@H](C(=O)N1CCc3cc(OC)c(OC)cc3C1)[C@H]1C(=O)O[C@H](c3ccccc3)[C@H](c3ccccc3)N1[C@@H]2c1ccc(O)cc1', 'composite z-score', 0.0718),
  ('C=C(COC)C(=O)CC[C@@H](OC(C)=O)c1ccc(OCCO)cc1', 'composite z-score', -0.154),
  ('C=CCC(OC(C)=O)[C@@H]1[C@@H](N(Cc2cc3ccccc3o2)C(=O)Cc2ccc(OC)cc2)c2cc(OCCCO)ccc2N1C(=O)Cc1ccc2ccccc2c1 (stereo partly drawn)', 'composite z-score', -0.0704),
  ('COc1ccc([Si](C)(C)[C@H]2[C@H](CCO)O[C@@]3(C(=O)N(Cc4ccc(N5CCOC5=O)cc4)c4ccccc43)[C@@H]2C)cc1', 'composite z-score', -0.12),
  ('CCCC=C(CCC)[C@@H](NC(=O)c1ccco1)c1ccc(C(=O)OC)cc1', 'composite z-score', 0.117),
  ('C=CCC(OC(C)=O)[C@@H]1[C@@H](N(Cc2ccc(-c3cccc(C(F)(F)F)c3)o2)C(=O)Cc2ccc(F)cc2)c2cc(OCCCO)ccc2N1C(=O)c1ccc2ccccc2n1 (stereo partly drawn)', 'composite z-score', -0.0462),
  ('COCCOC(=O)N1C(=O)[C@@]2(c3cc(C#CC4(O)CCCCCC4)ccc31)[C@H](c1ccc(OCCO)cc1)N1[C@H](c3ccccc3)[C@H](c3ccccc3)OC(=O)[C@H]1[C@@H]2C(=O)N1CCCCCCC1', 'composite z-score', 0.716),
  ('COCCOC(=O)N1C(=O)[C@@]2(c3cc(C#CCCO)ccc31)[C@H](C(=O)N1CCN(c3ncccn3)CC1)[C@H]1C(=O)O[C@H](c3ccccc3)[C@H](c3ccccc3)N1[C@@H]2c1ccc(O)cc1', 'composite z-score', -0.0179),
  ('CCCCN1CC=CC23O[C@@H]4/C=C\CCC(C)OC(=O)C4[C@H]2C(=O)N(C(C)CO)[C@@H]3C1=O (stereo partly drawn)', 'composite z-score', -0.178);

Quick check: composite z-score of "COc1ccc([Si](C)(C)[C@H]2[C@H](CCO)O[C@@]3(C(=O)N(Cc4ccccc4)c4ccc(N(C=O)c5ccccc5)cc43)[C@@H]2C)cc1" ? -0.0512

Which composite z-score is reported for this molecule? "CN(C)C(=O)[C@]1(Cc2ccccc2CN=[N+]=[N-])N=C(c2ccc(OCCCO)cc2)O[C@@H]1c1ccccc1N=[N+]=[N-]" -0.0161

* * *

# Target or system: Albumin (Bos taurus) (UniProt P02769)
# Sequence (P02769 whole entry, looked up): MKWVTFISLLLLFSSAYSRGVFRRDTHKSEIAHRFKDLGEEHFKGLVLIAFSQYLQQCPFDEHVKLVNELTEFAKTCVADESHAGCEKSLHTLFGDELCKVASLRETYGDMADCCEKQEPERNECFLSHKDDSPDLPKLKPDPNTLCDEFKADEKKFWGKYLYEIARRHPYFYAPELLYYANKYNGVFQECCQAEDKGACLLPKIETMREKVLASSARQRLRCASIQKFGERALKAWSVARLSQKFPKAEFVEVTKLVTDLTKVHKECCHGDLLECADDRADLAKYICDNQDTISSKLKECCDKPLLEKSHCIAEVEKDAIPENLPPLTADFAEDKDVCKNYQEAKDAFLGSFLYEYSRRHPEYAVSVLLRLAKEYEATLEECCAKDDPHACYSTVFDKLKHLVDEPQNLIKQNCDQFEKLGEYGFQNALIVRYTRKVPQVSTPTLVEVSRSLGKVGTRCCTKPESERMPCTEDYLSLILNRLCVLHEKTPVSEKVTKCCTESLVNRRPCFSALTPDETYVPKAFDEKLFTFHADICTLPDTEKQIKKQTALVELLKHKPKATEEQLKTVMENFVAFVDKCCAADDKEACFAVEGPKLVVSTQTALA
# Assay info: bovine serum albumin binders on microarray, profiling panel, artefact control for SMM control protein annotation, biochemical, small-molecule microarray, Alexa647 label, 635/667 nm fluorescence (AID 1118);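 note: score merges 667 nm emission intensity and signal-to-noise per printed compound spot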
# Condition details: BSA-A647 binding, fluorescence 635 nm, higher = more signal
Parameter measured: composite z-score
// keep it numeric: no unit symbol after the value

INSERT INTO measurements (compound, parameter_measured, value_measured) VALUES
  ('CCCCCCCCCCC(O)C1C=CC2C(=O)N(C)C(=O)C2N1N1CCCCC1 (stereo unspecified)', 'composite z-score', -0.377);

Given the entry "COCCOC(=O)N1C(=O)[C@@]2(c3cc(C#CC4(O)CCCCCC4)ccc31)[C@H](c1ccc(OCCO)cc1)N1[C@H](c3ccccc3)[C@H](c3ccccc3)OC(=O)[C@H]1[C@@H]2C(N)=O" , report its measured composite z-score. 0.119

Looking for the measured composite z-score of CC(C)C[C@H]1NC(=O)[C@H](Cc2ccccc2)NC(=O)[C@@]23C(=O)N[C@@H](Cc4ccccc4)C2[C@H](C)[C@@]2(C)O[C@H]2C3/C=C/C/C=C\CNC1=O (stereo partly specified) , can you help? -0.235

For the compound "C=CCNC(=O)[C@@H]1[C@H]2C(=O)O[C@H](c3ccccc3)[C@H](c3ccccc3)N2[C@H](c2ccccc2OCCO)[C@@]12C(=O)N(C(=O)OCCOC)c1ccc(C#CCCO)cc12" , what composite z-score is on record? 0.538

Quick one: composite z-score of "Cc1ccc(S[C@]2(C(=O)NCCCN(C)C)CC(=O)N(Cc3ccccc3Cl)[C@@H]2c2ccc(CO)cc2I)cc1" ? -0.153

GET /values?readout=composite z-score&item= "COC(=O)c1c(CC[C@@H](CO)NC(=O)N[C@@H](Cc2ccccc2)Cn2cc(-c3cncn3C)nn2)oc(C(C)=O)c1C(=O)OC" 0.979

* * *

# Tested on: Fibrinogen (Alexa647-labelled)
# Assay info: fibrinogen binders on compound microarrays, profiling panel, artefact control for SMM control-protein annotation, biochemical, small-molecule microarray, 635/667 nm fluorescence (AID 1131);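 note: z-score merges 667 nm fluorescence with per-spot signal-to-noise over triplicate slides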
# Condition details: fibrinogen-A647 binding fluorescence, higher = more signal
We use 0.5 as the dividing line for composite z-score: on or above the line is 1, below is 0.

Reference set (5 entries):
INSERT INTO results (molecule, answer_label) VALUES
  ('CCCCCCc1nc(-c2ccc(OC)nc2)cc2c1[Si](C(C)C)(C(C)C)OC2', 0),
  ('COC(=O)[C@@H]1N=C(c2ccc(OCCCO)cc2)O[C@@H]1c1ccccc1CN=[N+]=[N-]', 0),
  ('CC(C)C[C@@H]1NC(=O)[C@@]23C(=O)N[C@@H](Cc4ccccc4)C2[C@H](C)[C@@]2(C)O[C@H]2C3/C=C/C/C=C\CNC(=O)[C@@H](CC(C)C)NC1=O (some centres not stated)', 1),
  ('O=C1C2C=CC(C(O)c3ccc([N+](=O)[O-])cc3)N(Nc3ccccc3)C2C(=O)N1c1ccccc1 (configuration not stated)', 1),
  ('CC(C)(C)OC(=O)CC[C@]1(C(N)=O)N=C(c2ccc(OCCCO)cc2)O[C@H]1c1ccccc1CN=[N+]=[N-]', 1);

Check the entry "CCCC[C@H]1OB(O)C[C@H]2C1=C(C)C[C@H]1C(=O)C=CC(=O)[C@H]12" : does composite z-score equal or exceed 0.5? 0

Given the entry "NC(=O)NCC#Cc1ccc2c(c1)[C@]1(C(=O)N2)[C@H](C(=O)Nc2nc3ccccc3s2)[C@H]2C(=O)O[C@H](c3ccccc3)[C@H](c3ccccc3)N2[C@@H]1c1ccc(OCCO)cc1" , answer whether its composite z-score meets or surpasses 0.5. 0
